Biological target: IRAK4 (Homo sapiens (Human))
Test: IRAK4 Biochemical HTRF Kinase Assay
Conditions: Table 5; multiple runs; read-out: IRAK4 HTRF biochemical: IC50
Sequence (Q9NWZ3 whole entry, species assumed): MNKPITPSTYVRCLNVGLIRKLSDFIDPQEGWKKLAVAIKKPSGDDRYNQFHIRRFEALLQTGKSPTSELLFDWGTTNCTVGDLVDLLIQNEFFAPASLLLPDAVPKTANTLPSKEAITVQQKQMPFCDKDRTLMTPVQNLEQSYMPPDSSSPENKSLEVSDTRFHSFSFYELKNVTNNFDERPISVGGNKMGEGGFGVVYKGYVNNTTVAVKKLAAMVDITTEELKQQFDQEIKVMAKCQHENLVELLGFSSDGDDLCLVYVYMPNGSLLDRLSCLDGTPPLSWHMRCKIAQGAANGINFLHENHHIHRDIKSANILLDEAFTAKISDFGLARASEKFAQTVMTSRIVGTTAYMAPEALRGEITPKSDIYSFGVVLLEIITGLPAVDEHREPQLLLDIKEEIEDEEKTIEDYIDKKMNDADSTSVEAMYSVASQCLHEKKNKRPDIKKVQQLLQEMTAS
reported_property: IC50 (nM)

compound=CNc1cc(-c2ccc3cc(C#N)cnn23)ncc1-c1nnc(N2CCC(NC(=O)COc3cc(-c4scnc4C)ccc3CNC(=O)[C@@H]3C[C@@H](O)CN3C(=O)[C@@H](NC(=O)C3(F)CC3)C(C)(C)C)CC2)s1 recorded_number=4.8

P: CNc1cc(-c2ccc3cc(C#N)cnn23)ncc1-c1nnc(C2CCC(NC(=O)[C@H]3C[C@H]3C(=O)N[C@H](C(=O)N3C[C@H](O)C[C@H]3C(=O)N[C@@H](C)c3ccc(-c4scnc4C)cc3)C(C)(C)C)CC2)s1 (mixture of isomers)
Q: CNc1cc(-c2ccc3cc(C#N)cnn23)ncc1-c1nnc([C@H]2CC[C@H](NC(=O)CCOCCOc3cc(-c4scnc4C)ccc3CNC(=O)[C@@H]3C[C@@H](O)CN3C(=O)[C@@H](NC(=O)C3(F)CC3)C(C)(C)C)CC2)s1
R: CNc1cc(-c2ccc3cc(C#N)cnn23)ncc1-c1nnc([C@H]2CC[C@@H](NC(=O)CN3CCN(c4ccc5c(c4)C(=O)N(C4CCC(=O)NC4=O)C5=O)CC3)CC2)s1 (some centres unmarked)
S: CNc1cc(-c2ccc3cc(C#N)cnn23)ncc1-c1nnc([C@H]2CC[C@H](N(C)CC3CCN(c4ccc(C(=O)NC5CCC(=O)NC5=O)nc4)CC3)CC2)s1 (some centres unmarked)
Problem: Order these by IC50, descending, and give the full ranking. Lab note: record answer as labels in requested order.
Solution: Q, P, R, S
(Q: 5.3 nM, P: 1.5 nM, R: 0.9 nM, S: 0.5 nM)

---

Molecular target: IRAK4 (Homo sapiens (Human), UniProt Q9NWZ3)
Assay: IRAK4 Degradation HiBiT Assay
Conditions: Jurkat, read-out: Cellular IRAK4 HiBiT: Dmax, Table 5; multiple runs; HiBiT-tagged Jurkat cells, 4 hrs
Sequence (Q9NWZ3 whole entry): as the sequence (Q9NWZ3 whole entry, species assumed) above
reported_property: Dmax (%)

compound=CN[C@@H](C)C(=O)N[C@H](C(=O)N1C[C@@H](NC(=O)CCCCC(=O)N2CCN(c3nnc(-c4cnc(-c5ccc6cc(C#N)cnn56)cc4NC(C)C)s3)CC2)C[C@H]1C(=O)N[C@@H]1CCCc2ccccc21)C1CCCCC1 reported_property=Dmax recorded_number=47

I: CNc1cc(-c2ccc3cc(C#N)cnn23)ncc1-c1nnc(N2CCC(NC(=O)CN3CCN(c4ccc5c(c4)C(=O)N(C4CCC(=O)NC4=O)C5=O)CC3)CC2)s1 (stereo not shown)
II: Cc1ncsc1-c1ccc([C@H](C)NC(=O)[C@@H]2C[C@@H](O)CN2C(=O)[C@@H](NC(=O)CCC(=O)N2CCN(c3nnc(-c4cnc(-c5ccc6cc(C#N)cnn56)cc4NC(C)C)s3)CC2)C(C)(C)C)cc1
III: CNc1cc(-c2ccc3cc(C#N)cnn23)ncc1-c1nnc([C@H]2CC[C@H](N(C)C(=O)CCC(=O)N[C@H](C(=O)N3C[C@H](O)C[C@H]3C(=O)N[C@@H](C)c3ccccc3)C(C)(C)C)CC2)s1
Problem: Your job: order these 3 records by Dmax, ascending. Lab note: record answer as labels in requested order.
Solution: III, II, I
(III: 34%, II: 53%, I: 108%)

---

Target: IRAK4 (Homo sapiens (Human), UniProt Q9NWZ3)
Experiment: IRAK4 Degradation HiBiT Assay
Conditions: Jurkat, read-out: Cellular IRAK4 HiBiT: Dmax, Table 5; multiple runs; HiBiT-tagged Jurkat cells, 4 hrs
reported_property: Dmax (%)

Example cases with answers are listed next.
compound="CC(C)Nc1cc(-c2ccc3cc(C#N)cnn23)ncc1-c1nnc(N2CCC3(CCN(C(=O)CNc4cccc5c4C(=O)N(C4CCC(=O)NC4=O)C5=O)CC3)CC2)s1 (centres unmarked)" recorded_number=61
compound="CNc1cc(-c2ccc3cc(C#N)cnn23)ncc1-c1nnc([C@H]2CC[C@H](NC(=O)C3CCN(c4ccc5c(c4)C(=O)N(C4CCC(=O)NC4=O)C5=O)CC3)CC2)s1 (some centres unmarked)" recorded_number=113

1: CC(C)Nc1cc(-c2ccc3cc(C#N)cnn23)ncc1-c1nnc(N2CCN(CC3CCN(c4ccc(C(=O)N(C)C5CCC(=O)NC5=O)cc4)CC3)CC2)s1 (centres unmarked)
2: CNc1cc(-c2ccc3cc(C#N)cnn23)ncc1-c1nnc(C23CCC(NC(=O)CCCCCCCNc4ccc5c(c4)C(=O)N(C4CCC(=O)NC4=O)C5=O)(CC2)CC3)s1 (centres unmarked)
Problem: Which numeric Dmax is bigger, that of 1 or that of 2 ? Selection: enter the item's label.
Solution: 1

1: CC(C)Nc1cc(-c2ccc3cc(C#N)cnn23)ncc1-c1nnc(N2CCN(C(=O)C3CCN(Cc4ccc5c(c4)C(=O)N(C4CCC(=O)NC4=O)C5=O)CC3)CC2)s1 (centres unmarked)
2: CC(C)Nc1cc(-c2ccc3cc(C#N)cnn23)ncc1-c1nnc(N2CCN(C[C@H]3CCN(c4ccc5c(c4)C(=O)N(C4CCC(=O)NC4=O)C5=O)C3)CC2)s1 (some centres unmarked)
Problem: Given the entries 1 and 2 , determine which has the lower reported Dmax. Selection: enter the item's label.
Solution: 2

a: CNc1cc(-c2ccc3cc(C#N)cnn23)ncc1-c1nnc(N2CC3(CCN(C(=O)CN4CCN(c5ccc6c(c5)C(=O)N(C5CCC(=O)NC5=O)C6=O)CC4)CC3)C2)s1 (centres unmarked)
b: CNc1cc(-c2ccc3cc(C#N)cnn23)ncc1-c1nnc(C23CCC(NC(=O)CCCCCNc4cccc5c4C(=O)N(C4CCC(=O)NC4=O)C5=O)(CC2)CC3)s1 (centres unmarked)
c: CNc1cc(-c2ccc3cc(C#N)cnn23)ncc1-c1nnc([C@H]2CC[C@H](N(C)C(=O)Cc3ccc4c(c3)CN(C3CCC(=O)NC3=O)C4=O)CC2)s1 (some centres unmarked)
Problem: Your job: order these 3 records by Dmax, ascending. Lab note: record answer as labels in requested order.
Solution: c, b, a

---

Biological target: UniProtKB Q9NWZ3
Assay: IRAK4 Degradation Competition/Rescue Assay
Assay type: cell-based
Details: degrader 1 μM; 1 hr pre-treatment with Nedd8i (5 μM) or MG-132 (20 or 50 μM); HiBiT Jurkat clone 8D5
Excerpt: IRAK4 Degradation Competition/Rescue Assay
reported_property: Rescue by proteasome or Nedd8 inhibition

compound=Cc1ncsc1-c1ccc(CNC(=O)[C@@H]2C[C@@H](O)CN2C(=O)[C@@H](NC(=O)CCCC(=O)N2CCN(c3nnc(-c4cnc(-c5ccc6cc(C#N)cnn56)cc4NC(C)C)s3)CC2)C(C)(C)C)cc1 result=YES
compound="CC[C@@H]1[C@H](F)C(=O)N[C@@H]1COc1ncc(C#CCN2CCC3(CC2)CCN(c2ncc(C(=O)N[C@H](C(=O)N4C[C@H](O)C[C@H]4C(=O)NCc4ccc(-c5scnc5C)cc4)C(C)(C)C)cn2)CC3)c2cc(C(N)=O)c(OC)cc12 [Comparative b1, reference compound]" result=YES

---

Target: IRAK4 (Homo sapiens (Human), UniProt Q9NWZ3)
Test: IRAK4 Biochemical HTRF Kinase Assay
Conditions: Table 5; multiple runs; read-out: IRAK4 HTRF biochemical: IC50
Procedure: IRAK4 Biochemical HTRF Kinase Assay The binding capacities of certain bifunctional compounds of Formula (I) were determined using the CisBio HTRF KinEASE STK S1 Kit (#62ST1PEB, contains 5× Kinase buffer, 1× Detection Buffer, anti-phospho-serine/threonine-cryptate, Streptavidin-XL665, and STK-S1), which measures the phosphorylation of a biotinylated peptide substrate by IRAK4, according to the manufacturer's protocol. […]
reported_property: IC50 (nM)

Example cases with answers are listed next.
molecule="CNc1cc(-c2ccc3cc(C#N)cnn23)ncc1-c1nnc(N2CCN(C(=O)C3CCN(Cc4ccc5c(c4)C(=O)N(C4CCC(=O)NC4=O)C5=O)CC3)CC2)s1 (centres unmarked) [Example 86]" reported_property=IC50 readout_unit=nM recorded_number=1.1
molecule="CNc1cc(-c2ccc3cc(C#N)cnn23)ncc1-c1nnc(C23CCC(NC(=O)CCOCCNc4ccc5c(c4)C(=O)N(C4CCC(=O)NC4=O)C5=O)(CC2)CC3)s1 (centres unmarked) [Example 102]" reported_property=IC50 readout_unit=nM recorded_number=0.8
molecule="CNc1cc(-c2ccc3cc(C#N)cnn23)ncc1-c1nnc([C@H]2CC[C@H](N(C)C(=O)C[C@H](NC(=O)[C@@H]3C[C@@H](O)CN3C(=O)C(c3cc(C)no3)C(C)C)c3ccc(-c4scnc4C)cc3)CC2)s1 (some centres unmarked) [Example 191]" reported_property=IC50 readout_unit=nM recorded_number=1.5

I: CC(C)Nc1cc(-c2ccc3cc(C#N)cnn23)ncc1-c1nnc(N2CCN(CC3CCN(Cc4ccc5c(c4)C(=O)N(C4CCC(=O)NC4=O)C5=O)CC3)CC2)s1 (centres unmarked) [Example 85]
II: CNc1cc(-c2ccc3cc(C#N)cnn23)ncc1-c1nnc([C@H]2CC[C@H](NC(=O)CCCCCOc3cc(-c4scnc4C)ccc3CNC(=O)[C@@H]3C[C@@H](O)CN3C(=O)[C@@H](NC(=O)C3(F)CC3)C(C)(C)C)CC2)s1 [Example 60]
Problem: Given the entries I and II , determine which has the lower reported IC50. Selection: enter the item's label.
Solution: I
(I: 2.1 nM, II: 3.5 nM)
